- TEST_SYSTEM: human plasma kallikrein (Homo sapiens, UniProt P03952)
- Sequence (P03952 391-638 limits assumed): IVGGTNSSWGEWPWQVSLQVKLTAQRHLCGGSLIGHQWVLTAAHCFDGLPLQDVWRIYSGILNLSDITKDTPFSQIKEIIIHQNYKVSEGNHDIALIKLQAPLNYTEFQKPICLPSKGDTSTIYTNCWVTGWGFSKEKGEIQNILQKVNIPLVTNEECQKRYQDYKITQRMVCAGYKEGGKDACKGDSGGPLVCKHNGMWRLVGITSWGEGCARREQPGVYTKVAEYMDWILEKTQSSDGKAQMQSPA
- Sequence (P03952 20-390 partner limits assumed): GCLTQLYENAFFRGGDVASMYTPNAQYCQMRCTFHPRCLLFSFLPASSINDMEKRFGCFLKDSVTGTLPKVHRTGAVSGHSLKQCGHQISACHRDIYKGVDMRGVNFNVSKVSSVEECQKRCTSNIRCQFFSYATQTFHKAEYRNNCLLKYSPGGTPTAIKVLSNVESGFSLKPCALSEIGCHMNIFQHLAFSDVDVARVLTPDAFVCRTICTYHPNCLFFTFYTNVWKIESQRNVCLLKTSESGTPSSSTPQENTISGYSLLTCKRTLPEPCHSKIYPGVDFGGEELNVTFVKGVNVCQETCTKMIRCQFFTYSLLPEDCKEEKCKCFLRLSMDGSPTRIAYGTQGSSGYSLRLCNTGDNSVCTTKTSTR
- METHOD_SUMMARY: Kallikrein inhibition FLINT assay with quenched AMC peptide substrate Z-Gly-Pro-Arg-AMC (end point EP or kinetic KIN reads)
- Type: biochemical
- EXPERIMENTAL_CONTEXT: kinetic reads at 5 min intervals over 30 min; read-out: Kallikrein (KIN) IC50
EXPERIMENTAL_ENDPOINT: IC50 (µM)

compound="[O-][n+]1cc(-c2c(-n3cnnn3)ccc(Cl)c2F)ccc1C(Cc1ccc(F)cc1)n1cc(-c2ccncc2)cn1 (single isomer, unassigned) [Example P236]" measurement_unit=µM value=0.158
compound="Cn1nncc1-c1cnn([C@@H](Cc2ccc(C(F)(F)F)nc2)c2ccc(-c3c(-n4cc(Cl)nn4)ccc(Cl)c3F)c[n+]2[O-])c1 [Example P773]" measurement_unit=µM value=4.21
compound="[O-][n+]1cc(-c2c(-n3cnnn3)ccc(Cl)c2F)ccc1C(CCOC(F)F)n1cc(-c2ccnc(C(F)(F)F)c2)cn1 (stereo not shown) [Example P462]" measurement_unit=µM value=0.0143
compound="NC(=O)c1ccc(-c2cnn(C(Cc3ccn(C(F)F)n3)c3ccc(-c4c(-n5cc(C(F)(F)F)nn5)ccc(Cl)c4F)c[n+]3[O-])c2)cc1 (single isomer, unassigned) [Example P907]" measurement_unit=µM value=0.0704
compound="[2H]C([2H])(C[C@H](c1ccc(-c2c(-n3cc(C(F)(F)F)nn3)ccc(Cl)c2F)c[n+]1[O-])n1cc(-c2ncnn2C)cn1)OC(F)F [Example P820]" measurement_unit=µM value=0.0688

(P) CC1CC1C[C@H](c1ccc(-c2c(-n3cnnn3)ccc(Cl)c2F)c[n+]1[O-])n1cc(-c2c(F)nnn2C)cn1 (stereo partly shown) [Example P768]
(Q) O=C(C1CC1CC(c1ccc(-c2c(-n3cnnn3)ccc(Cl)c2F)c[n+]1[O-])n1cc(-c2ccncc2)cn1)N1CCCCC1 (stereo not shown) [Example P252]
Prompt line: Of P and Q , which one carries the higher reported IC50? Please indicate the selected item by its label.
Response line: Q
(Q: 0.617 µM, P: 0.0705 µM)

* * *

- TEST_SYSTEM: human plasma kallikrein (Homo sapiens)
- METHOD_SUMMARY: Kallikrein inhibition FLINT assay with quenched AMC peptide substrate Z-Gly-Pro-Arg-AMC (end point EP or kinetic KIN reads)
- Assay type: biochemical
- EXPERIMENTAL_CONTEXT: kinetic reads at 5 min intervals over 30 min; read-out: Kallikrein (KIN) IC50
pIC50: −log10 of the molar value.
EXPERIMENTAL_ENDPOINT: pIC50

molecule="O=C(O)c1ccc(-c2cnn([C@H](CC3CC3)c3ccc(-c4cc(Cl)ccc4-n4cnnn4)c[n+]3[O-])c2)cc1 [Example P6]" experimental_endpoint=pIC50 value=7.07
molecule="[O-][n+]1cc(-c2cc(Cl)ccc2-n2cnnn2)ccc1C(Cc1ccc(Cl)cc1)n1cc(-c2ccnc(C(F)(F)F)c2)cn1 (centres unmarked) [Example P250]" experimental_endpoint=pIC50 value=7.34
molecule="NC(=O)c1cnn(CC(c2ccc(-c3c(-n4cnnn4)ccc(Cl)c3F)c[n+]2[O-])n2cc(-c3ccnc(C(F)(F)F)c3)cn2)c1 (centres unmarked) [Example P483]" experimental_endpoint=pIC50 value=8.04

(1) CC(C)(C)OCC[C@H](c1ccc(-c2c(-n3cnnn3)ccc(Cl)c2F)c[n+]1[O-])n1cc(-c2ccnn2C(F)F)cn1 [Example P640]
(2) Cn1ncc(C[C@@H](c2ccc(-c3c(-n4cc(Cl)nn4)ccc(Cl)c3F)c[n+]2[O-])n2cc(-c3ccnc(C(F)(F)F)c3)cn2)n1 [Example P715]
Prompt line: Of 1 and 2 , which one carries the higher reported pIC50? Please indicate the selected item by its label.
Response line: 1

* * *

- TEST_SYSTEM: human plasma kallikrein (Homo sapiens)
- METHOD_SUMMARY: Kallikrein inhibition FLINT assay with quenched AMC peptide substrate Z-Gly-Pro-Arg-AMC (end point EP or kinetic KIN reads)
- Format: biochemical
- EXPERIMENTAL_CONTEXT: kinetic reads at 5 min intervals over 30 min; read-out: Kallikrein (KIN) IC50
EXPERIMENTAL_ENDPOINT: IC50 (nM)

compound="O=C(O)c1ccc(-c2cnn(C(CC(=O)N3CCNCC3)c3ccc(-c4cc(Cl)ccc4-n4cnnn4)c[n+]3[O-])c2)cc1 (stereo not shown)" measurement_unit=nM value=80
compound=[O-][n+]1cc(-c2c(-n3cc(Cl)nn3)ccc(Cl)c2F)ccc1[C@@H](CCOC(F)F)n1cc(-c2cn(C(F)F)nn2)cn1 measurement_unit=nM value=353
compound=COC(C)(C)C[C@H](c1ccc(-c2c(-n3cnnn3)ccc(Cl)c2F)c[n+]1[O-])n1cc(-c2ccnn2C(F)F)cn1 measurement_unit=nM value=506
compound="COc1cc(C(CC2CC2)n2cc(-c3ncnn3C(F)F)cn2)[n+]([O-])cc1-c1cc(Cl)ccc1-n1cnnn1 (single isomer, unassigned)" measurement_unit=nM value=3.9
compound=[O-][n+]1cc(-c2c(-n3cnnn3)ccc(Cl)c2F)ccc1[C@@H](CC1CC1)n1cc(-c2nnco2)cn1 measurement_unit=nM value=943

(a) O=C(O)C1CCN(C(=O)C2CC2CC(c2ccc(-c3c(-n4cnnn4)ccc(Cl)c3F)c[n+]2[O-])n2cc(-c3ccccc3)cn2)CC1 (stereo not shown) [Example P215]
(b) Cn1ccc(CC(c2ccc(-c3c(C(F)F)ccc(Cl)c3F)c[n+]2[O-])n2cc(-c3ccc(C(=O)O)cc3)cn2)n1 (stereo not shown)
Prompt line: # query: argmin of IC50 over a and b Please indicate the selected item by its label.
Response line: b
(b: 2.3 nM, a: 755 nM)

* * *

- TEST_SYSTEM: human plasma kallikrein (Homo sapiens)
- METHOD_SUMMARY: Kallikrein inhibition FLINT assay with quenched AMC peptide substrate Z-Gly-Pro-Arg-AMC (end point EP or kinetic KIN reads)
- Format: biochemical
- EXPERIMENTAL_CONTEXT: end point read at 30 min; read-out: Kallikrein (EP) IC50
EXPERIMENTAL_ENDPOINT: IC50 (µM)

compound="Nc1ccc(-c2cnn(C(CC3CC3)c3ccc(-c4cc(Cl)ccc4-n4cnnn4)c[n+]3[O-])c2)c(Cl)n1 (single isomer, unassigned) [Example P49]" measurement_unit=µM value=0.0792

(a) O=C(O)c1ccc(-c2cnn([C@H](CC3CC3)c3ccc(-c4cc(Cl)ccc4-n4cnnn4)c[n+]3[O-])c2)cc1 [Example P6]
(b) O=C(O)c1cccc(-c2cnn(C(CC3CC3)c3ccc(-c4cc(Cl)ccc4-n4cnnn4)c[n+]3[O-])c2)c1 (stereo not drawn) [Example P3]
Prompt line: # query: argmin of IC50 over a and b Please indicate the selected item by its label.
Response line: a
(a: 0.0658 µM, b: 0.0982 µM)

* * *

- TEST_SYSTEM: human plasma kallikrein (Homo sapiens)
- METHOD_SUMMARY: Kallikrein inhibition FLINT assay with quenched AMC peptide substrate Z-Gly-Pro-Arg-AMC (end point EP or kinetic KIN reads)
- Assay type: biochemical
- EXPERIMENTAL_CONTEXT: kinetic reads at 5 min intervals over 30 min; read-out: Kallikrein (KIN) IC50
EXPERIMENTAL_ENDPOINT: IC50 (nM)

Illustrative cases are given below, each with its answer.
compound="[O-][n+]1cc(-c2c(-n3cnnn3)ccc(Cl)c2F)ccc1C(CC1CC1)n1cc(-c2ccncc2)cn1 (single isomer, unassigned) [Example P262]" value=31.8
compound="O=C(NC1CC1)c1ccc(-c2cnn(C(CC3CCCCO3)c3ccc(-c4c(-n5cnnn5)ccc(Cl)c4F)c[n+]3[O-])c2)cc1 (single isomer, unassigned) [Example P77]" value=36.2
compound="[O-][n+]1cc(-c2c(-n3cnnn3)ccc(Cl)c2F)ccc1[C@@H](CCOC(F)F)n1cc(-c2ccn(C(F)F)n2)cn1 [Example P563]" value=25
compound="[O-][n+]1ccc(-c2cnn(C(Cn3cc(F)cn3)c3ccc(-c4c(-n5cnnn5)ccc(Cl)c4F)c[n+]3[O-])c2)cc1C(F)F (single isomer, unassigned) [Example P406]" value=27.6

(P) N#Cc1cc(-c2cnn(C(Cn3cc(F)cn3)c3ccc(-c4c(-n5cnnn5)ccc(Cl)c4F)c[n+]3[O-])c2)ccn1 (single isomer, unassigned) [Example P453]
(Q) COC(=O)Nc1ccc(-c2cnn(C(Cc3ccn(C)n3)c3ccc(-c4c(-n5cnnn5)ccc(Cl)c4F)c[n+]3[O-])c2)cc1 (racemic) [Example P327]
(R) CCOc1cc(C(CC2CC2)n2cc(-c3ncnn3C)cn2)[n+]([O-])cc1-c1cc(Cl)ccc1-n1cc(C(F)(F)F)nn1 (single isomer, unassigned) [Example P945]
Prompt line: # rank by IC50, ascending (min first) Reply with the item labels sorted in the order that was asked for.
Response line: Q, P, R

* * *

- TEST_SYSTEM: human plasma kallikrein (Homo sapiens)
- METHOD_SUMMARY: Kallikrein inhibition FLINT assay with quenched AMC peptide substrate Z-Gly-Pro-Arg-AMC (end point EP or kinetic KIN reads)
- Format: biochemical
- EXPERIMENTAL_CONTEXT: kinetic reads at 5 min intervals over 30 min; read-out: Kallikrein (KIN) IC50
EXPERIMENTAL_ENDPOINT: IC50 (µM)

Illustrative cases are given below, each with its answer.
molecule="Cc1ncsc1-c1cnn(C(CC2CC2)c2ccc(-c3c(-n4cnnn4)ccc(Cl)c3F)c[n+]2[O-])c1 (centres unmarked) [Example P488]" measurement_unit=µM value=0.0925
molecule="Cn1ncc(-c2cnn(C(CCOC(F)F)c3ccc(-c4c(-n5cnnn5)ccc(Cl)c4F)c[n+]3[O-])c2)cc1=O (centres unmarked) [Example P415]" measurement_unit=µM value=0.184
molecule="Cn1nnc(F)c1-c1cnn(C(CCOC(F)F)c2ccc(-c3c(-n4cnnn4)ccc(Cl)c3F)c[n+]2[O-])c1 (centres unmarked) [Example P749]" measurement_unit=µM value=0.0198
molecule="[O-][n+]1cc(-c2c(-n3cnnn3)ccc(Cl)c2F)ccc1C(CC1CC1)n1cc(-c2cnco2)cn1 (centres unmarked) [Example P497]" measurement_unit=µM value=0.169
molecule="Cn1cncc1-c1cnn(C(Cn2cc(F)cn2)c2ccc(-c3c(-n4cnnn4)ccc(Cl)c3F)c[n+]2[O-])c1 (centres unmarked) [Example P502]" measurement_unit=µM value=0.0301
molecule="Cc1cc(-c2cnn(C(Cn3cc(F)cn3)c3ccc(-c4c(-n5cnnn5)ccc(Cl)c4F)c[n+]3[O-])c2)cc(C)[n+]1[O-] (centres unmarked) [Example P477]" measurement_unit=µM value=0.188
molecule="[O-][n+]1cc(-c2c(-n3cnnn3)ccc(Cl)c2F)ccc1C(Cn1nccc1C(F)(F)F)n1cc(-c2ccnc(F)c2)cn1 (centres unmarked) [Example P346]" measurement_unit=µM value=0.0118
molecule="NC(=O)C1CC1CC(c1ccc(-c2c(-n3cnnn3)ccc(Cl)c2F)c[n+]1[O-])n1cc(-c2ccc(N)nc2F)cn1 (single isomer, unassigned) [Example P337]" measurement_unit=µM value=0.556
molecule="[O-][n+]1ccc(-c2cnn(C(CC3CC3)c3ccc(-c4c(-n5cnnn5)ccc(Cl)c4F)c[n+]3[O-])c2)cn1 (centres unmarked) [Example P398]" measurement_unit=µM value=0.73
molecule="Nc1ccc(-c2cnn(C(Cn3cc(CC(=O)N4CCCCC4)cn3)c3ccc(-c4c(-n5cnnn5)ccc(Cl)c4F)c[n+]3[O-])c2)c(F)n1 (centres unmarked) [Example P471]" measurement_unit=µM value=0.0517

(I) O=C(O)c1ccc(-c2cnn(C(Cc3ccn(C(F)F)n3)c3ccc(-c4c(C(F)F)ccc(Cl)c4F)c[n+]3[O-])c2)cc1F (single isomer, unassigned) [Example Q64]
(II) Cn1cc(C[C@@H](c2ccc(-c3c(-n4cnnn4)ccc(Cl)c3F)c[n+]2[O-])n2cc(-c3ccnc(C(F)(F)F)c3)cn2)nn1 [Example P737]
(III) CN(CC(c1ccc(-c2c(-n3cnnn3)ccc(Cl)c2F)c[n+]1[O-])n1cc(-c2ccnc(C(F)(F)F)c2)cn1)C(=O)C1CC1 (single isomer, unassigned) [Example P428]
Prompt line: # rank by IC50, ascending (min first) Reply with the item labels sorted in the order that was asked for.
Response line: I, III, II

Numbers sourced from patent US11814364B2.
